# test-description: Safety Test 2: pharmacokinetic parameters
# Format: in vivo
# condition-label: male, human, plasma, Group A: placebo + the pyrazolopyrimidinone; read-out: AUCinf Ud
attribute-measured: AUC(0-inf)
Please format your answer as a value with the unit trailing.

Input: Tell us which AUC(0-inf) value is on record for CCCOc1ccc(S(=O)(=O)NCCC2CCCN2C)cc1-c1nc2c(CCC)nn(C)c2c(=O)[nH]1 (stereo not shown)
Output: 4820 ng·h/mL

###

# test-description: Safety Test 2: pharmacokinetic parameters
# Type: in vivo
# condition-label: male, human, plasma, Cmax Silodosin, Group C: Silodosin + the pyrazolopyrimidinone
attribute-measured: Cmax (ng/mL)
Give bare numbers, in ng/mL.

Input: # return recorded Cmax for entry C[C@H](Cc1cc2c(c(C(N)=O)c1)N(CCCO)CC2)NCCOc1ccccc1OCC(F)(F)F [Silodosin, reference compound]
Output: 35.2

###

# test-description: Safety Test 2: pharmacokinetic parameters
# Type: in vivo
# condition-label: male, human, plasma, Tmax (h) Silodosin, Group C: Silodosin + the pyrazolopyrimidinone
attribute-measured: Tmax (h)
Numbers only, in h.

Input: Indicate the recorded Tmax value for this compound: C[C@H](Cc1cc2c(c(C(N)=O)c1)N(CCCO)CC2)NCCOc1ccccc1OCC(F)(F)F [Silodosin, reference compound]
Output: 1.7

###

# Test system: health men
# test-description: Safety Test 1: vital signs in supine position, Tamsulosin combination
# Format: in vivo, human
# condition-label: the values are: Diastolic blood pressure mean
attribute-measured: Diastolic blood pressure mean
Please make sure the unit comes right after the number.

>  <molecule>
CCCOc1ccc(S(=O)(=O)NCCC2CCCN2C)cc1-c1nc2c(CCC)nn(C)c2c(=O)[nH]1 (centres unmarked) [Compound of formula (I)]

>  <Diastolic blood pressure mean>
61.6 mmHg

$$$$

# next molecule below
Input: Indicate its recorded Diastolic blood pressure mean; the molecule in question is CCOc1ccccc1OCCN[C@H](C)Cc1ccc(OC)c(S(N)(=O)=O)c1 [Tamsulosin, reference compound]
Output: 63 mmHg

###

# test-description: Safety Test 2: pharmacokinetic parameters
# Type: in vivo
# condition-label: male, human, plasma, AUCinf Silodosin, Group B: placebo + Silodosin
attribute-measured: AUC(0-inf) (ng·h/mL)
Answers are plain numbers, in ng·h/mL.

Input: Fill in AUC(0-inf) for record C[C@H](Cc1cc2c(c(C(N)=O)c1)N(CCCO)CC2)NCCOc1ccccc1OCC(F)(F)F [Silodosin, reference compound]
Output: 110

###

# test-description: Safety Test 2: pharmacokinetic parameters
# Format: in vivo
# condition-label: male, human, plasma, Group A: placebo + the pyrazolopyrimidinone; read-out: Cmax Ud
attribute-measured: Cmax (ng/mL)
One number for each entry, in ng/mL.

Input: Please report Cmax for the following molecule: CCCOc1ccc(S(=O)(=O)NCCC2CCCN2C)cc1-c1nc2c(CCC)nn(C)c2c(=O)[nH]1 (stereo not shown)
Output: 627

###

# test-description: Safety Test 2: pharmacokinetic parameters
# Assay type: in vivo
# condition-label: male, human, plasma, Group C: Silodosin + the pyrazolopyrimidinone; read-out: AUCinf Ud
attribute-measured: AUC(0-inf) (ng·h/mL)
Give bare numbers, in ng·h/mL.

Input: Give a short answer stating reported AUC(0-inf) for CCCOc1ccc(S(=O)(=O)NCCC2CCCN2C)cc1-c1nc2c(CCC)nn(C)c2c(=O)[nH]1 (stereo not shown) .
Output: 4940

Sourced from patent US20100210668A1
